Numbers sourced from paper PMC8222333.

- assayedTarget: dAsCas12a E174R (Acidaminococcus sp., UniProt U2UMQ6 1-1307, E174R;D908A;E993A;D1235A)
- experimentSummary: Spec-seq (native PAGE EMSA with sequencing of bound and unbound); 25 mM Tris-HCl pH 7.4, 150 mM KCl, 5 mM MgCl2, 10% glycerol, 1 mM DTT, 40 ng/uL salmon sperm DNA; 400 nM Cas12a, 480 nM crRNA, 50 nM library, 37 C 1 h; native PAGE at room temperature; high values mean tight binding;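 also: relative affinity from the bound to unbound sequence frequency ratio in Spec-seq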
- assayContext: protein: recombinant
reportedEndpoint: binding signal (lnKA)
Answers are plain numbers, in lnKA.

Qu. State its binding signal: TTTG (dsDNA) DNA 1: GCTATCTAGTGCTCAGTACGCACTGTTTGAGGAAACTTCTGGCAGGACCAGGTCATGAGATCGGAAGAGCACACGTCTGAACTCCAGTCA DNA 2: TGACTGGAGTTCAGACGTGTGCTCTTCCGATCTCATGACCTGGTCCTGCCAGAAGTTTCCTCAAACAGTGCGTACTGAGCACTAGATAGC RNA: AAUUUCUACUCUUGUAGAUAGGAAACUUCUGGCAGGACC
Ans. -0.628

Qu. State its binding signal: GATC (dsDNA) DNA 1: GCTATCTAGTGCTCAGTACGCACTGGATCAGGAAACTTCTGGCAGGACCAGGTCATGAGATCGGAAGAGCACACGTCTGAACTCCAGTCA DNA 2: TGACTGGAGTTCAGACGTGTGCTCTTCCGATCTCATGACCTGGTCCTGCCAGAAGTTTCCTGATCCAGTGCGTACTGAGCACTAGATAGC RNA: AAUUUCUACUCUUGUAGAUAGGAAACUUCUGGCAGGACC
Ans. -8.27

Now let's try a different one.
Qu. State its binding signal: TGTT (dsDNA) DNA 1: GCTATCTAGTGCTCAGTACGCACTGTGTTAGGAAACTTCTGGCAGGACCAGGTCATGAGATCGGAAGAGCACACGTCTGAACTCCAGTCA DNA 2: TGACTGGAGTTCAGACGTGTGCTCTTCCGATCTCATGACCTGGTCCTGCCAGAAGTTTCCTAACACAGTGCGTACTGAGCACTAGATAGC RNA: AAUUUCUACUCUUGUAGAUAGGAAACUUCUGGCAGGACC
Ans. -8.41
